Each recorded value in this set is attributed to PubChem BioAssay.

# assayed system: Torsin-1A-interacting protein 2 (Homo sapiens) (UniProt Q8NFQ8)
# Sequence (Q8NFQ8 whole entry, looked up): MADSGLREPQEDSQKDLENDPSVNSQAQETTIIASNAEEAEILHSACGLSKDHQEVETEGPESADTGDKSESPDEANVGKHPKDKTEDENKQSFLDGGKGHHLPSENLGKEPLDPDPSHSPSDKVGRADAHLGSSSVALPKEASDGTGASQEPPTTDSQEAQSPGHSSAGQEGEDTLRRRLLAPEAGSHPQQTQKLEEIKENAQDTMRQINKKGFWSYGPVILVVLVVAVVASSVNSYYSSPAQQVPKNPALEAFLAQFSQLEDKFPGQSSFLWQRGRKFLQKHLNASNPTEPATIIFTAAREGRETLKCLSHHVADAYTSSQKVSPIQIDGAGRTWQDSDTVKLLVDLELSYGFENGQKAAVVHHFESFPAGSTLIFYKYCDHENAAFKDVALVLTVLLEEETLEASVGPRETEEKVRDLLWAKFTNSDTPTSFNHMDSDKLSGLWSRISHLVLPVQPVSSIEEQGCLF
# procedure summary: LULL1 binders on small-molecule microarray, primary screen, cell lysate, human LULL1 lysate, 635/667 nm fluorescence (AID 1092);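 also: probe is lysate of COS7 cells overexpressing human LULL1; score merges per-feature 667 nm fluorescence with signal-to-noise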
# condition parameters: hLULL1 lysate binding, 635 nm fluorescence, higher = more signal
readout name: composite z-score

{"columns": ["compound", "readout name", "value measured"],
 "data": [
  ["CCCCC(O)C1C=CC2C(=O)N(C3CCCCC3)C(=O)C2N1Nc1ccc(OC)cc1 (stereo unspecified)", "composite z-score", 2.77],
  ["C=CC[C@@]1(C(=O)N2CCOCC2)N=C(c2ccc(OCCCO)cc2)O[C@@H]1c1ccccc1N=[N+]=[N-]", "composite z-score", 3.41],
  ["COCCOC(=O)N1C(=O)[C@@]2(c3cc(C#CCC(C(=O)OC)C(=O)OC)ccc31)[C@H](C(=O)N1CCCCCCC1)[C@H]1C(=O)O[C@H](c3ccccc3)[C@H](c3ccccc3)N1[C@@H]2c1ccc(OCCO)cc1", "composite z-score", 4.11],
  ["COCCOC(=O)N1C(=O)[C@@]2(c3cc(C#CCNC(N)=O)ccc31)[C@H](c1ccc(O)cc1)N1[C@H](c3ccccc3)[C@H](c3ccccc3)OC(=O)[C@H]1[C@@H]2C(=O)NC[C@H](O)c1ccccc1", "composite z-score", 1.62],
  ["O=C1C[C@]2(c3ccc([N+](=O)[O-])cc3)C(=O)N(CC(F)(F)F)c3cc(CO)ccc3[C@H]2N1CC12CC3CC(CC(C3)C1)C2", "composite z-score", 2.49],
  ["COc1ccc([Si](C)(C)[C@H]2[C@H](CC(=O)N(CCO)Cc3ccccc3)O[C@@]3(C(=O)N(Cc4cccc(N5CCC5=O)c4)c4ccccc43)[C@@H]2C)cc1", "composite z-score", 1.64]
]}

----------
# System: XIP peptide (Xip251-270)
# procedure summary: small-molecule binders of XIP peptide, primary screen, biochemical, small-molecule microarray, fluorescence 635/667 nm, 0.5 µg/mL protein (AID 1183)
# condition parameters: small-molecule microarray binding, fluorescence 635 nm; higher = more signal
readout name: composite z-score

{"columns": ["compound", "value measured"],
 "data": [
  ["CCOC(=O)C1=C[C@@H](C(C)C)N(S(=O)(=O)c2ccc(C)cc2)[C@H]1c1ccc(C(C)C)cc1", -0.109],
  ["COCCOC(=O)N1C(=O)[C@@]2(c3cc(C#CCNC(N)=O)ccc31)[C@H](C(=O)N1CCc3cc(OC)c(OC)cc3C1)[C@H]1C(=O)O[C@H](c3ccccc3)[C@H](c3ccccc3)N1[C@@H]2c1ccc(OCCO)cc1", 0.616],
  ["CC(C)CNC(=O)[C@@H]1c2ccccc2C(=O)N(Cc2cc(C(F)(F)F)cc(C(F)(F)F)c2)[C@H]1c1ccc(CO)cc1", -0.308],
  ["O=C1O[C@H](c2ccccc2)[C@H](c2ccccc2)N2[C@H]1[C@@H](C(=O)Nc1nc3ccccc3s1)[C@]1(C(=O)Nc3ccccc31)[C@H]2c1ccc(O)cc1", 0.143],
  ["COc1ccc(C(=O)Nc2cccc(CN3C(=O)[C@]4(O[C@H](CC(=O)N5CCC[C@H]5CO)[C@@H]([Si](C)(C)c5ccc(OC)cc5)[C@@H]4C)c4ccccc43)c2)cc1", 0.687],
  ["C=CCC(OC(C)=O)[C@@H]1[C@@H](N(Cc2ccc(-c3ccccc3)cc2)C(=O)Cc2ccc(OC)cc2)c2cc(OCCCO)ccc2N1C(=O)c1ccc2ccccc2n1 (stereo partly specified)", 0.219]
]}

----------
# System: wheat germ agglutinin (Triticum aestivum), Alexa647-labelled
# procedure summary: wheat germ agglutinin binders on compound microarrays, profiling panel, artefact control for SMM control-protein annotation, biochemical, small-molecule microarray, 635/667 nm fluorescence (AID 1140);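 also: score merges 667 nm feature emission with signal to noise over triplicate slides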
# condition parameters: WGA-A647 binding, 635 nm fluorescence, higher = more signal
Label condition met when composite z-score is at or above 0.5; anything below gets condition not met.

{"columns": ["compound", "assayed system", "label class"],
 "data": [
  ["CC(C)(C)N1CC=CC23O[C@@H]4/C=C\\CCCOC(=O)C4[C@H]2C(=O)N(CCO)[C@@H]3C1=O (stereo not given in full)", "wheat germ agglutinin (Triticum aestivum), Alexa647-labelled", "condition not met"],
  ["C=CCOC(=O)[C@H]1[C@@H]2C(=O)O[C@@H](c3ccccc3)[C@@H](c3ccccc3)N2[C@@H](c2ccc(OCCOC(=O)[C@@H]3C[C@@H]4C(=O)N5CCC[C@H]5C(=O)N4[C@@H]3c3ccc(O)cc3)cc2)[C@]12C(=O)Nc1ccccc12", "wheat germ agglutinin (Triticum aestivum), Alexa647-labelled", "condition met"],
  ["COCCOC(=O)N1C(=O)[C@@]2(c3ccccc31)[C@H](C(=O)Nc1nc3ccccc3s1)[C@H]1C(=O)O[C@H](c3ccccc3)[C@H](c3ccccc3)N1[C@@H]2c1ccc(OCCO)cc1", "wheat germ agglutinin (Triticum aestivum), Alexa647-labelled", "condition met"],
  ["CN(C)CCCNC(=O)[C@@]1(Cc2ccccc2I)c2ccccc2C(=O)N(Cc2ccccc2C(F)(F)F)[C@H]1c1ccc(CO)cc1", "wheat germ agglutinin (Triticum aestivum), Alexa647-labelled", "condition not met"],
  ["Cc1ccccc1C(O)C1C=CC2C(=O)N(C)C(=O)C2N1Nc1ccccc1 (stereo not given)", "wheat germ agglutinin (Triticum aestivum), Alexa647-labelled", "condition met"],
  ["O=C1O[C@H](c2ccccc2)[C@H](c2ccccc2)N2[C@H]1[C@@H](C(=O)NC[C@H](O)c1ccccc1)[C@]1(C(=O)Nc3ccc(C#CCCO)cc31)[C@H]2c1ccc(O)cc1", "wheat germ agglutinin (Triticum aestivum), Alexa647-labelled", "condition not met"],
  ["O=c1cccc(C=Cc2ccccc2)o1", "wheat germ agglutinin (Triticum aestivum), Alexa647-labelled", "condition not met"],
  ["CCOC(=O)C1=CC[C@@H](c2ccccc2Cl)N(S(=O)(=O)c2ccc(C)cc2)C1", "wheat germ agglutinin (Triticum aestivum), Alexa647-labelled", "condition met"],
  ["O=C/C=C/c1ccc(Cl)cc1", "wheat germ agglutinin (Triticum aestivum), Alexa647-labelled", "condition not met"],
  ["CCOC(=O)C[C@H]1[C@H](OC(=O)Cc2ccc3c(c2)OCO3)[C@@H](NC(=O)C2CCCCC2)c2cc(OCCCO)ccc2N1C(=O)Cc1ccc(OC)cc1", "wheat germ agglutinin (Triticum aestivum), Alexa647-labelled", "condition not met"],
  ["CC1CC/C=C\\[C@H]2OC34C=CCN(Cc5ccccc5)C(=O)[C@H]3N(CCCCCO)C(=O)[C@@H]4C2C(=O)O1 (stereo not given in full)", "wheat germ agglutinin (Triticum aestivum), Alexa647-labelled", "condition not met"],
  ["COc1cc2c(cc1O)C(C)N(Cc1cccc(OC(F)(F)F)c1)CC2 (stereo not given)", "wheat germ agglutinin (Triticum aestivum), Alexa647-labelled", "condition met"],
  ["COc1ccc(C#Cc2ccc3c(c2)[C@]2(C(=O)N3)[C@H](C(=O)NC[C@H](O)c3ccccc3)[C@H]3C(=O)O[C@H](c4ccccc4)[C@H](c4ccccc4)N3[C@@H]2c2ccccc2OCCO)cc1", "wheat germ agglutinin (Triticum aestivum), Alexa647-labelled", "condition met"],
  ["CC(=O)NCCCC[C@@H]1NC(=O)[C@@H]2C[C@H](C(=O)NCCCCCCNC(=O)CS)[C@H](c3ccc(O)cc3)N2C1=O", "wheat germ agglutinin (Triticum aestivum), Alexa647-labelled", "condition not met"]
]}

----------
# assayed system: NADPH oxidase 4 (Homo sapiens)
# procedure summary: NOX4-dependent H2O2 signal modulators, primary screen, NOX inhibitor project, cell-based, HEK293-NOX4, tetracycline-induced, Amplex Red fluorescence (AID 1160)
# condition parameters: 45 min, higher = more signal, called active from +8 up or from −8 down
compounds and their reported z-score
readout name: z-score

{"columns": ["compound", "value measured"],
 "data": [
  ["COCCOC(=O)N1C(=O)[C@@]2(c3cc(C#CC4=CCCCC4)ccc31)[C@H](C(=O)NC[C@H](O)c1ccccc1)[C@H]1C(=O)O[C@H](c3ccccc3)[C@H](c3ccccc3)N1[C@@H]2c1ccc(O)cc1", 0.349],
  ["COCCOC(=O)N1C(=O)[C@@]2(c3ccccc31)[C@H](c1ccc(O)cc1)N1[C@H](c3ccccc3)[C@H](c3ccccc3)OC(=O)[C@H]1[C@@H]2C(=O)N1CCc2cc(OC)c(OC)cc2C1", 0.594],
  ["COC(=O)C1=CC(CCCO)=CC(C2CC2)N(Cc2sc3ccccc3c2Cl)C=C1C(=O)OC (configuration not stated)", -1.76],
  ["[N-]=[N+]=NCc1ccccc1[C@H]1OC(c2ccc(OCCCO)cc2)=N[C@@]1(CCS(=O)(=O)c1ccccc1)C(=O)N1CCOCC1", 2.19],
  ["CCOc1cc(C(O)C2C=CC3C(=O)N(c4ccccc4)C(=O)C3N2Nc2ccc([N+](=O)[O-])cc2)ccc1O (configuration not stated)", -4.89],
  ["NCCCCCNC(=O)[C@H]1C[C@H]2C(=O)NCC(=O)N2[C@H]1c1cccc(OCCO)c1", 1.02],
  ["Cc1c(NC(=O)CC#N)c(=O)n(-c2ccccc2)n1C", -0.0592]
]}
